Measured values drawn from patent US10562912B2 for this set.

- assayed-system: STAT3 (Homo sapiens)
- Construct: plasmid pSTAT3-TA-luc), which contains a stably operating STAT3 promoter; endogenous in cells
- Sequence (P40763 whole entry): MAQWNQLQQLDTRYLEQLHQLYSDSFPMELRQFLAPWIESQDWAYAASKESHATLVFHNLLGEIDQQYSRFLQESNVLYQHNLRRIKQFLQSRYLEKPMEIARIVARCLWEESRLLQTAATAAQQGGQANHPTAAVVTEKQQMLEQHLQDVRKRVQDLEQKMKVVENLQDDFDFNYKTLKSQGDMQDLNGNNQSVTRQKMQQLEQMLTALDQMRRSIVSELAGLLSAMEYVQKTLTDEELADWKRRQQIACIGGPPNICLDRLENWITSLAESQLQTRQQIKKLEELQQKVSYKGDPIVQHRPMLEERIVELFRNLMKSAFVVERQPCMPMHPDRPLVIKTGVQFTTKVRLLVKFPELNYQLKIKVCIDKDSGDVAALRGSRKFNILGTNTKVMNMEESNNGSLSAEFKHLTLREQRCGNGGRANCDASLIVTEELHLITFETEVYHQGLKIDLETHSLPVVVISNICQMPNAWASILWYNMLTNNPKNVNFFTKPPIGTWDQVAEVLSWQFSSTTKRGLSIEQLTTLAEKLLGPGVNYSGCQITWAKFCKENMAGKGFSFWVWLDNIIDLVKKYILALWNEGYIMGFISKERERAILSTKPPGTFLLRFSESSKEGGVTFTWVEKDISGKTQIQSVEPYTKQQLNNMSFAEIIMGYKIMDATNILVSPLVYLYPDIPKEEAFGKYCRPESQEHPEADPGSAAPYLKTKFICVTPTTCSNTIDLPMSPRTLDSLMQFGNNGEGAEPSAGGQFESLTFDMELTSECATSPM
- assay-notes: STAT3 reporter gene assay (luciferase), LNCaP stable cell line (pSTAT3-TA-luc), IL-6 stimulation
- Type: cell-based
- Method: 1-1) Experiment on the Inhibition of STAT3 Activity […] The luciferase assay and the cell viability assay were performed respectively with one of the two plates. […] After shaking the plate for 30 minutes, luciferase activities of each well were measured in a PHERAstar™ microplate reader (BMG LABTECH) using a luciferase assay system (Cat No. E1501, Promega). […]

{"compound": "COc1cc(NC(=O)c2cc3cc(NS(C)(=O)=O)ccc3s2)cc(C(C)(C)c2cc(OC)cc(OC(F)(F)F)c2)c1", "assayed-system": "STAT3 (Homo sapiens)", "IC50": "0.051 µM"}
{"compound": "CC(C)Oc1cc(OC(F)(F)F)cc(C2(c3cc(Cl)cc(NC(=O)c4cc5cc(NS(C)(=O)=O)ccc5s4)c3)CC2)c1", "assayed-system": "STAT3 (Homo sapiens)", "IC50": "0.053 µM"}
{"compound": "CC(C)(c1cc(Cl)cc(NC(=O)c2cc3cc(NS(C)(=O)=O)ccc3s2)c1)c1cc(OC2COC2)cc(OC(F)(F)F)c1", "assayed-system": "STAT3 (Homo sapiens)", "IC50": "3 µM"}
{"compound": "CC(C)Oc1cc(OC(F)(F)F)cc(C(C)(C)c2cc(Cl)cc(NC(=O)c3cc4cc(NS(=O)(=O)CCN(C)C)ccc4s3)c2)c1", "assayed-system": "STAT3 (Homo sapiens)", "IC50": "0.17 µM"}
{"compound": "CC(C)(C)OC(=O)n1c(C(=O)Nc2cccc(-c3ccccc3C(F)(F)F)c2)cc2ccc([N+](=O)[O-])cc21", "assayed-system": "STAT3 (Homo sapiens)", "IC50": "> 10 µM"}
{"compound": "CNC(=O)c1cc(NC(=O)c2cc3ccc(NS(C)(=O)=O)cc3[nH]2)cc(-c2ccc(F)cc2F)c1", "assayed-system": "STAT3 (Homo sapiens)", "IC50": "8.1 µM"}
{"compound": "COc1ccc(C(C)(C)c2cc(Cl)cc(NC(=O)c3cc4cc(NS(C)(=O)=O)c(Cl)cc4s3)c2)cc1", "assayed-system": "STAT3 (Homo sapiens)", "IC50": "0.01 µM"}
{"compound": "CC(C)Oc1cc(OC(F)(F)F)cc(C(C)(C)c2cc(Cl)cc(NC(=O)c3nc4cc(NS(C)(=O)=O)ccc4s3)c2)c1", "assayed-system": "STAT3 (Homo sapiens)", "IC50": "0.055 µM"}
{"compound": "O=C(Nc1cccc(-c2ccc(F)cc2C(F)(F)F)c1)C1Cc2ccc([N+](=O)[O-])cc2N1 (stereo not shown)", "assayed-system": "STAT3 (Homo sapiens)", "IC50": "1.4 µM"}
{"compound": "CS(=O)(=O)Nc1ccc2cc(C(=O)Nc3cc(-c4cc(C(N)=O)ccc4Cl)ccn3)[nH]c2c1", "assayed-system": "STAT3 (Homo sapiens)", "IC50": "> 10 µM"}
{"compound": "COc1ccc(-c2cccc(NC(=O)c3cc4ccc([N+](=O)[O-])cc4[nH]3)c2)c(F)c1", "assayed-system": "STAT3 (Homo sapiens)", "IC50": "> 10 µM"}
{"compound": "CS(=O)(=O)Nc1ccc2cc(C(=O)Nc3cccc(S(=O)(=O)c4ccccn4)c3)[nH]c2c1", "assayed-system": "STAT3 (Homo sapiens)", "IC50": "8.2 µM"}
{"compound": "COc1cccc(Oc2cc(Cl)cc(NC(=O)c3cc4cc(NS(C)(=O)=O)ccc4s3)c2)c1", "assayed-system": "STAT3 (Homo sapiens)", "IC50": "0.28 µM"}
{"compound": "CC(C)(c1cccc(NC(=O)c2cc3cc(NS(C)(=O)=O)ccc3s2)c1)c1ccc(F)cc1F", "assayed-system": "STAT3 (Homo sapiens)", "IC50": "0.08 µM"}
{"compound": "CC(=O)N1CCC(S(=O)(=O)Nc2ccc3sc(C(=O)Nc4cc(Cl)cc(C(C)(C)c5cc(OC(C)C)cc(OC(F)(F)F)c5)c4)cc3c2)CC1", "assayed-system": "STAT3 (Homo sapiens)", "IC50": "0.19 µM"}
{"compound": "CC(C)(c1ccc(S(C)(=O)=O)cc1)c1cc(Cl)cc(NC(=O)c2cc3cc(NS(C)(=O)=O)ccc3s2)c1", "assayed-system": "STAT3 (Homo sapiens)", "IC50": "> 10 µM"}
{"compound": "CC(C)Oc1cc(OC(F)(F)F)cc(C(C)(C)c2cc(Cl)cc(NC(=O)c3cc4c(s3)CCN(NS(C)(=O)=O)C4)c2)c1", "assayed-system": "STAT3 (Homo sapiens)", "IC50": "0.224 µM"}
{"compound": "C#Cc1cc(NC(=O)c2cc3ccc(NS(C)(=O)=O)cc3[nH]2)cc(-c2ccc(F)cc2F)c1", "assayed-system": "STAT3 (Homo sapiens)", "IC50": "0.4 µM"}
{"compound": "CC(C)(c1ccc(F)cc1)c1cccc(NC(=O)c2cc3ccc(NS(C)(=O)=O)cc3s2)c1", "assayed-system": "STAT3 (Homo sapiens)", "IC50": "0.43 µM"}
{"compound": "COc1cc(C(F)(F)F)c(-c2cccc(NC(=O)c3cc4ccc(NS(C)(=O)=O)cc4[nH]3)c2)cc1C(N)=O", "assayed-system": "STAT3 (Homo sapiens)", "IC50": "> 10 µM"}
{"compound": "CS(=O)(=O)Nc1ccc2cc(C(=O)Nc3cc(-c4ccc(F)cc4F)c4cn[nH]c4c3)[nH]c2c1", "assayed-system": "STAT3 (Homo sapiens)", "IC50": "8.4 µM"}
{"compound": "CC(C)(c1cc(Br)cc(NC(=O)c2cc3cc(NS(C)(=O)=O)ccc3s2)c1)c1cc(OC(F)(F)F)ccc1F", "assayed-system": "STAT3 (Homo sapiens)", "IC50": "0.008 µM"}
{"compound": "CS(=O)(=O)Nc1ccc2cc(C(=O)Nc3cccc(C4(c5ccc(F)cc5)CC4)c3)[nH]c2c1", "assayed-system": "STAT3 (Homo sapiens)", "IC50": "0.46 µM"}
{"compound": "COc1cc(OC(F)(F)F)cc(C(C)(C)c2cc(Cl)cc(NC(=O)c3cc4cc(NS(C)(=O)=O)ccc4s3)n2)c1", "assayed-system": "STAT3 (Homo sapiens)", "IC50": "0.014 µM"}
{"compound": "CS(=O)(=O)Nc1ccc2cc(C(=O)Nc3cccc(-c4ccc([N+](=O)[O-])cc4C(F)(F)F)c3)[nH]c2c1", "assayed-system": "STAT3 (Homo sapiens)", "IC50": "2.5 µM"}
{"compound": "O=C(Nc1cccc(-c2ccccc2C(F)(F)F)c1)c1cc2ccc([N+](=O)[O-])cc2n1CCN1CCOCC1", "assayed-system": "STAT3 (Homo sapiens)", "IC50": "> 10 µM"}
{"compound": "CS(=O)(=O)Nc1cc2cc(C(=O)Nc3cc(Cl)cc(Oc4ccc(OC(F)(F)F)cc4)c3)sc2cc1Cl", "assayed-system": "STAT3 (Homo sapiens)", "IC50": "0.019 µM"}
{"compound": "CC(C)(c1cc(Cl)cc(NC(=O)c2cc3cc(NS(C)(=O)=O)ccc3s2)c1)N1CCCCC1", "assayed-system": "STAT3 (Homo sapiens)", "IC50": "0.72 µM"}
